- study-target: T1, cynomolgus suPAR (cynomolgus, UniProt Q9GK78 23-303, limits assumed)
- T1 construct: Target antigen of the off-rate screen; also called cynomolgus uPAR; cynoPLAUR-His
- T1 sequence (Q9GK78 23-303 limits assumed): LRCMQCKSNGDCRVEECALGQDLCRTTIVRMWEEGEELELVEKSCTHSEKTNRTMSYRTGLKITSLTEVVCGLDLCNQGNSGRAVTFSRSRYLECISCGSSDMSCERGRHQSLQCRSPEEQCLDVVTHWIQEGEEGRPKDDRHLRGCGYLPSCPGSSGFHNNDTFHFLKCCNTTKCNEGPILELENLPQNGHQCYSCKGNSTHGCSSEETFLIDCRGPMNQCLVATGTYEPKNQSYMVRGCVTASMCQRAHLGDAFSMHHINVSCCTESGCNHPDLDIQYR
- procedure-summary: BLI (Octet) off-rate screen of scFv clones
Task for the reader: assign each of the following binders its reported koff.
Answers are plain numbers, in s⁻¹.

Use the examples below as a reference point.
[[record]]
binder = "suPAR_DB03_D06 (scFv, V domains shown, screened as scFv) VH: QVQLVQSGAEVKKPGASVKVSCKASGYSFTNYYMHWVRQAPGQGLEWMGWIDHENGNTSYAQKFQGRVTMTRDTSTSTVYMELSSLRSEDTAVYYCARGYDVDWFVYWGQGTLVTVSS VL: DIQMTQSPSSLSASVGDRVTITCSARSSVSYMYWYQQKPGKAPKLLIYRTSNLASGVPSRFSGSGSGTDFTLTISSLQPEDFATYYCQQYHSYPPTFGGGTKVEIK"
observed_property = "koff"
display_unit = "s⁻¹"
measured_value = 0.000388

[[record]]
binder = "suPAR_DB03_D07 (scFv, V domains shown, screened as scFv) VH: QVQLVQSGAEVKKPGASVKVSCKASGNTFTNYYVHWVRQAPGQGLEWMGWIDPSNGNTIYDQKFQGRVTMTRDTSTSTVYMELSSLRSEDTAVYYCARGYDVDWFVYWGQGTLVTVSS VL: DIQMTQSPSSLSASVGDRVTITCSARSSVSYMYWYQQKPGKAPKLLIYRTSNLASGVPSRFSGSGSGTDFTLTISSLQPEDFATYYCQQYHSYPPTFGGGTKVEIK"
observed_property = "koff"
display_unit = "s⁻¹"
measured_value = 0.000163

[[record]]
binder = "suPAR_DB03_A08 (scFv, V domains shown, screened as scFv) VH: QVQLVQSGAEVKKPGASVKVSCKASGYTFTGYYMHWVRQAPGQGLEWMGWIDHENGSTIYAQKFQGRVTMTRDTSTSTVYMELSSLRSEDTAVYYCARGYDVDWFVYWGQGTLVTVSS VL: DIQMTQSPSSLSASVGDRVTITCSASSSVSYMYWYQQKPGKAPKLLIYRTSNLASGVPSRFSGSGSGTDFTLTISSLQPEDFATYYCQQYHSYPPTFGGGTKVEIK"
observed_property = "koff"
display_unit = "s⁻¹"
measured_value = 0.000269

[[record]]
binder = "suPAR_DB03_D12 (scFv, V domains shown, screened as scFv) VH: QVQLVQSGAEVKKPGASVKVSCKASGYTFSNYYMHWVRQAPGQGLEWMGWIDPENGNTIYAQKFQGRVTMTRDTSTSTVYMELSSLRSEDTAVYYCARGYDVDWFVYWGQGTLVTVSS VL: DIQMTQSPSSLSASVGDRVTITCRARSSVSYMYWYQQKPGKAPKLLIYRTSNLQSGVPSRFSGSGSGTDFTLTISSLQPEDFATYYCQQYHSYPPTFGGGTKVEIK"
observed_property = "koff"
display_unit = "s⁻¹"
measured_value = 0.000263


# input Look up and report measured koff for this entry: suPAR_DB03_E08 (scFv, V domains shown, screened as scFv) VH: QVQLVQSGAEVKKPGASVKVSCKASGYTFTHYYMHWVRQAPGQGLEWMGWIDPEGGSTIYDQKFQGRVTMTRDTSTSTVYMELSSLRSEDTAVYYCARGYDVDWFVYWGQGTLVTVSS VL: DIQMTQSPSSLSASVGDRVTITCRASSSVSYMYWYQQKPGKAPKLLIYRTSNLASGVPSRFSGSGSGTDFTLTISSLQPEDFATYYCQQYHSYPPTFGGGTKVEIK
# output 0.00025
